# System: M17-TAU P301L cells
# measurement-notes: TAU cytotoxicity assay: LDH leakage of retinoic acid incubated M17-TAU P301L cells
# Type: cell-based, human
# run-parameters: Homo sapiens, 168 h, reduction of LDH activity of retinoic acid incubated M17-TAU P301L cells, 7 days
measured-parameter: pEC50
Quick note: pEC50 values are minus log10 of concentrations in mol/L.

As a guide, the following entries are already answered.
Cc1cc(C(=O)NCCc2c[nH]c3ccccc23)c(C)n1C1CC1	6.34
CCc1ccc(N2CCC(C(=O)NCCc3c[nH]c4ccc(Cl)cc34)C2=O)cc1 (centres unmarked)	7.04
Cc1nc(C(=O)NCCc2c[nH]c3ccc(Cl)cc23)c(C)o1	6.51
Cc1ccc(Cc2nc(C(=O)NCCc3c[nH]c4ccc(Cl)cc34)no2)cc1	7.32

Record O=C(NCCc1c[nH]c2ccc(Cl)cc12)C1=NC(c2ccccc2)CO1 (centres unmarked) . Reported pEC50: 6.01
